Biological target: D3R (Homo sapiens, UniProt P35462)
Sequence (P35462 whole entry): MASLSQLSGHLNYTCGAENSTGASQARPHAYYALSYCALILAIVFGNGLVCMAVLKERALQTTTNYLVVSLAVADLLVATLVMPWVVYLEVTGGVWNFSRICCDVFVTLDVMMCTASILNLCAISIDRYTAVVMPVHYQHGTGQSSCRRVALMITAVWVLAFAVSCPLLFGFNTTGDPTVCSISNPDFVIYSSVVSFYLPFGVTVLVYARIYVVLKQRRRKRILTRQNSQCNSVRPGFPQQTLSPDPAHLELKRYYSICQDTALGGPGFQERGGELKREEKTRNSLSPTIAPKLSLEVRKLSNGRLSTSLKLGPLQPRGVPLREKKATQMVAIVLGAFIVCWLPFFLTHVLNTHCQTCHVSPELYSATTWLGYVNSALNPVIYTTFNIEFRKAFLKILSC
Assay: β-arrestin recruitment assay
Format: cell-based
Details: Figure 2
Quantity Kind: Functional efficacy class

Known Functional efficacy class results, listed for orientation:
O=C(NCC[C@H](O)CN1CCN(c2cccc(Cl)c2Cl)CC1)c1cnc2ccccc2c1 [(S)-4] : partial agonists
O=C(NCC[C@H](O)CN1CCN(c2cccc(Cl)c2Cl)CC1)c1cc2ccccc2[nH]1 [(S)-9] : partial agonists
O=C(NCC[C@@H](O)CN1CCN(c2cccc(Cl)c2Cl)CC1)c1cnc2ccccc2c1 [(R)-4] : antagonists
O=C(NCC[C@@H](O)CN1CCN(c2cccc(Cl)c2Cl)CC1)c1cc2ccccc2[nH]1 [(R)-9] : antagonists

Attention now shifts to the item below.
Input line: Which Functional efficacy class is listed for CC[C@H](O)CN1CCN(c2cccc(Cl)c2Cl)CC1 [(S)-6] ?
Output line: partial agonists

Data provenance: paper PMC5563258
